Recorded solubility in mineral oil by entry

Below: 5 compounds and their reported solubility in mineral oil.
| compound | measured-result |
| --- | --- |
| CC(=O)N1CCN(c2ccc(OCC3COC(Cn4ccnc4)(c4ccc(Cl)cc4Cl)O3)cc2)CC1 (stereo not shown) | < 0.01% |
| CCCCC(=O)O[C@]1(C(=O)CO)[C@@H](C)C[C@H]2[C@@H]3CCC4=CC(=O)C=C[C@]4(C)[C@@]3(F)[C@@H](O)C[C@@]21C [Betamethasone valerate] | < 0.01% |
| Cc1cnc(NC(=O)C2=C(O)c3ccccc3S(=O)(=O)N2C)s1 | < 0.001% |
| CCCC(=O)O[C@]1(C(=O)CO)CC[C@H]2[C@@H]3CCC4=CC(=O)CC[C@]4(C)[C@H]3[C@@H](O)C[C@@]21C [Hydrocortisone butyrate] | < 0.01% |
| Cc1ncc([N+](=O)[O-])n1CCO | < 0.01% |

Give reported solubility in mineral oil value for C/C(=C\C(=O)OCCCCCCCCC(=O)O)C[C@@H]1OC[C@H](C[C@@H]2O[C@H]2[C@@H](C)[C@H](C)O)[C@@H](O)[C@H]1O
< 0.01%

Give reported solubility in mineral oil value for CC(=O)[C@H]1CC[C@H]2[C@@H]3CCC4=CC(=O)CC[C@]4(C)[C@H]3CC[C@]12C
< 0.001%
